- test-target: Androgen Receptor (AR) protein (Homo sapiens, UniProt P10275, T878A)
- Construct: endogenous in cells; host or cells: LNCaP
- Sequence (P10275 whole entry T878A): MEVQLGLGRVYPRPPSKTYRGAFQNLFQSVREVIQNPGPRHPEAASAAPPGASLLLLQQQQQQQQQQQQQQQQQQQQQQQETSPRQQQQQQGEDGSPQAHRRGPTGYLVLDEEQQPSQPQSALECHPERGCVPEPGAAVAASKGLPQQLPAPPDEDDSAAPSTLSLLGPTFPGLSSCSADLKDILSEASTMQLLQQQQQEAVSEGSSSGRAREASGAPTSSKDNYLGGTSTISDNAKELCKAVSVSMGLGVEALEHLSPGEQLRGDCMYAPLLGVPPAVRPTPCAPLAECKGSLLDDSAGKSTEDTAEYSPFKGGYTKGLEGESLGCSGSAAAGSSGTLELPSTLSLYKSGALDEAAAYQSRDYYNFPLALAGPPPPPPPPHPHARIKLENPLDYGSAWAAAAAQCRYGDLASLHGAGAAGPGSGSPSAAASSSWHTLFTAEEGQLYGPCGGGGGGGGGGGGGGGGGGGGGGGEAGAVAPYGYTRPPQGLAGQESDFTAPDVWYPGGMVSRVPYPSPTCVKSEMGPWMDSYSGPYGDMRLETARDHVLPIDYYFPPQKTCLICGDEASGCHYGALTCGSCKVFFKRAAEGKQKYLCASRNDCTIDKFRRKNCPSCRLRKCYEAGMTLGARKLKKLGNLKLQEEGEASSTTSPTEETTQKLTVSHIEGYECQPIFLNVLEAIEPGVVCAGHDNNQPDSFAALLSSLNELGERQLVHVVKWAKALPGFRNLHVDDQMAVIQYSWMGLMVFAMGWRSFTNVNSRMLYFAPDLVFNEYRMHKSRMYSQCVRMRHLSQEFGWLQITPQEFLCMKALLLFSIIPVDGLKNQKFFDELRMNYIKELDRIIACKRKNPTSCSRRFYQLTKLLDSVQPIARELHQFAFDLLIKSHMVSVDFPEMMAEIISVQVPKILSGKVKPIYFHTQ
- Sequence (Q96SW2 whole entry partner): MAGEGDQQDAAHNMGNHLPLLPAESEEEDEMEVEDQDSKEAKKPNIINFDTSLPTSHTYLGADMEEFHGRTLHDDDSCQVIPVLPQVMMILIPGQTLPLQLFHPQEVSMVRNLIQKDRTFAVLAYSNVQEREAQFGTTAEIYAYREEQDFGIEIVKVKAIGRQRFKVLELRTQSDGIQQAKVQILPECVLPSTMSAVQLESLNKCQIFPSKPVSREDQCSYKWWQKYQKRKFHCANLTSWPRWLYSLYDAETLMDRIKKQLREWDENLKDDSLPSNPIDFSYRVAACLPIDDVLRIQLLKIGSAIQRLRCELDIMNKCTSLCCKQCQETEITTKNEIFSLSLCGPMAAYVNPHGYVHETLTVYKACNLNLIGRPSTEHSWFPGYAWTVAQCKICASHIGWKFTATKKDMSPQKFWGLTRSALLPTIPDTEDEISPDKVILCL
- protocol-details: Androgen Receptor (AR) protein degradation assay in LNCaP cells, western blotting
- Assay type: cell-based
- condition-notes: 20 h, 1 μM compound

# compound, test-target, inhibition at 1 µM, %
measured = [
    ("N#Cc1ccc(N2CCC(C(=O)Nc3ccc(N4CCC(CCN5CC6(CCN(c7ccc8c(c7)C(=O)N(C7CCC(=O)NC7=O)C8=O)CC6)C5)CC4)cn3)CC2)cc1C(F)(F)F (stereo not shown)", "Androgen Receptor (AR) protein (Homo sapiens, UniProt P10275, T878A)", 98),
    ("N#Cc1ccc(N2CCC(C(=O)Nc3ccc(N4CCC(CCN5CCN(C6CCN(c7ccc8c(c7)C(=O)N(C7CCC(=O)NC7=O)C8=O)CC6)CC5)CC4)cn3)CC2)cc1C(F)(F)F (stereo not shown)", "Androgen Receptor (AR) protein (Homo sapiens, UniProt P10275, T878A)", 98),
    ("N#Cc1ccc(N2CCC(C(=O)Nc3ccc(N4CCC(CN5CC6(CCN(c7ccc8c(c7)C(=O)N(C7CCC(=O)NC7=O)C8=O)CC6)C5)CC4)cn3)CC2)cc1C(F)(F)F (stereo not shown)", "Androgen Receptor (AR) protein (Homo sapiens, UniProt P10275, T878A)", 99),
    ("N#Cc1ccc(N2CCC(C(=O)Nc3ccc(N4CCC(CN5CCN(C(=O)CNc6ccc7c(c6)C(=O)N(C6CCC(=O)NC6=O)C7=O)CC5)CC4)cn3)CC2)cc1C(F)(F)F (stereo not shown)", "Androgen Receptor (AR) protein (Homo sapiens, UniProt P10275, T878A)", 97),
    ("N#Cc1ccc(N2CCC(C(=O)Nc3ccc(N4CCC(CN5CCN(C[C@H]6CCN(c7cc8c(cc7F)C(=O)N(C7CCC(=O)NC7=O)C8=O)C6)CC5)CC4)cn3)CC2)cc1C(F)(F)F (stereo partly shown)", "Androgen Receptor (AR) protein (Homo sapiens, UniProt P10275, T878A)", 96),
    ("N#Cc1ccc(N2CCC(C(=O)Nc3ccc(N4CCC(CN5CC6(CCN(c7ccc8c(c7)C(=O)N(C7CCC(=O)NC7=O)C8=O)CC6)C5)CC4)cn3)CC2)cc1Cl (stereo not shown)", "Androgen Receptor (AR) protein (Homo sapiens, UniProt P10275, T878A)", 99),
    ("N#Cc1ccc(N2CCC(C(=O)Nc3ccc(N4CC(CN5CCN(C6CN(c7ccc8c(c7)C(=O)N(C7CCC(=O)NC7=O)C8=O)C6)CC5)C4)cn3)CC2)cc1C(F)(F)F (stereo not shown)", "Androgen Receptor (AR) protein (Homo sapiens, UniProt P10275, T878A)", 94),
    ("N#Cc1ccc(N2CCC(F)(C(=O)Nc3ccc(N4CCC(CN5CCN(CC6CCN(c7ccc8c(c7)C(=O)N(C7CCC(=O)NC7=O)C8=O)CC6)CC5)CC4)cn3)CC2)cc1C(F)(F)F (stereo not shown)", "Androgen Receptor (AR) protein (Homo sapiens, UniProt P10275, T878A)", 95),
    ("N#Cc1ccc(N2CCC(C(=O)Nc3ccc(CN4CCC(CN5CCC(Oc6ccc7c(c6)C(=O)N(C6CCC(=O)NC6=O)C7=O)CC5)CC4)cn3)CC2)cc1C(F)(F)F (stereo not shown)", "Androgen Receptor (AR) protein (Homo sapiens, UniProt P10275, T878A)", 78),
    ("C[C@@H]1CN(C2CCN(c3ccc4c(n3)CN(C3CCC(=O)NC3=O)C4=O)CC2)CCN1CC1CCN(c2ccc(NC(=O)C3CCN(c4ccc(C#N)c(C(F)(F)F)c4)CC3)nc2)CC1 (stereo partly shown)", "Androgen Receptor (AR) protein (Homo sapiens, UniProt P10275, T878A)", 83),
]

Where these numbers come from: patent US12122763B2
